- System: MDA-MB-231
- assay notes: normalised response (% of control), CellTiter-Glo; higher = more viable cells (100 = DMSO, 0 = benzethonium chloride kill control)
- measurement context: incubation time: 72 h
readout label: normalised response (%)

1. C[C@H]1C[C@@H]2[C@H]([C@@H](O)C[C@@]3(C)[C@H]2CC[C@]3(O)C(=O)CO)[C@@]2(C)C=CC(=O)C=C12 [Methylprednisolone] (10 nM)
135
2. O=C(O)CCCCC(CCSCc1ccccc1)SCc1ccccc1 (centres undefined) [CPI-613] (1000 nM)
102
3. CC1=C(/C=C/C(C)=C/C=C/C(C)=C/C(=O)O)C(C)(C)CCC1 [Tretinoin] (1000 nM)
96.8
4. O=C(Cc1ccc(-c2ccc(OCCN3CCOCC3)cc2)cn1)NCc1ccccc1 [KX2-391] (1 nM)
107
5. CC(=O)Nc1cccc(-n2c(=O)n(C3CC3)c(=O)c3c(Nc4ccc(I)cc4F)n(C)c(=O)c(C)c32)c1 [Trametinib] (0.25 nM)
107
6. COc1cc2c(Oc3ccc4[nH]c(C)cc4c3F)ncnc2cc1OCCCN1CCCC1 [Cediranib] (0.1 nM)
109
7. Cc1ccc(-c2cc(C(F)(F)F)nn2-c2ccc(S(N)(=O)=O)cc2)cc1 [Celecoxib] (1000 nM)
96.4
8. O=C(O)C(=O)O.[NH-][C@@H]1CCCC[C@H]1[NH-].[Pt+2] [Oxaliplatin] (10 nM)
92.7
9. Nc1nc2[nH]cc(CCc3ccc(C(=O)N[C@@H](CCC(=O)O)C(=O)O)cc3)c2c(=O)[nH]1 [Pemetrexed] (1000 nM)
65.6

This collection of values is drawn from the supplement of paper PMC4862054.
